- Tested on: MDA-MB-435 melanoma
- PROTOCOL_SUMMARY: NCI-60 one-dose screen, 48 h (100 = growth as untreated, 0 = no growth, -100 = all killed)
- TEST_SETTINGS: 10 µM unless noted
- Description: Growth inhibition of the MDA-MB-435 human Melanoma tumor cell line is measured as a screen for anti-cancer activity. Cells are grown in 96 well plates and exposed to the test compound for 48 hours. Compounds are tested at a single concentration, which is 10^-5 M for most compounds. The reported endpoint is percent growth (GI% or GIPRCNT), where numbers from 0 - 100% represent growth inhibition, and numbers from -100% - 0 represent cell death. […]
This is part of a sample that, as a whole, favours compounds with a hit. Of some 83,000 tested, about 20% had one in any assay.
Documented growth across a set of compounds
Reply with just the number (in %).

COMPOUND | REPORTED_VALUE
Cc1cc(CSc2ccc(Cl)cc2)ccc1N | 104
COC(c1ccccc1)C(Br)C(=O)c1ccccc1 (stereo unspecified) | 96.3
CC(C)CSc1nc(-c2ccc(F)cc2)c(C#N)c(N2CCCCC2)n1 | 98.6
COC(=O)CC(=O)C(=O)OC | 120

Problem: Name the reported growth value associated with the compound CNc1nc2ncn(C)c2c(=O)[nH]1
Solution: 94.6

Problem: Let us now turn to C/C=C/C/C=C/[C@H](C)C[C@H](O)[C@@H]1C[C@@H]2O[C@H]2/C=C/[C@@H]2OC(C)(C)O[C@H]2/C=C/C[C@H](C)CC(=O)O1
Solution: 77.1

---

- Tested on: SF-295 CNS
- PROTOCOL_SUMMARY: NCI-60 one-dose screen, 48 h (100 = growth as untreated, 0 = no growth, -100 = all killed)
- TEST_SETTINGS: 10 µM unless noted
The panel holds about 83,000 compounds, 20% with a hit somewhere; the sample as a whole holds those more often.
OUTCOME_MEASURE: growth (%)
Supply the numeric figure in %, leaving out any unit text.

Here's what some known entries look like.
MOLECULE | TESTED_ON | growth / %
COc1cc(OC)c(/C=C/c2ccc3ccccc3[n+]2C)c(OC)c1 | SF-295 CNS | -32.7
COC1(OC)N=C(N)C2(C#N)C3(C(=O)Nc4ccccc43)C12C#N (stereo not drawn) | SF-295 CNS | 96.4

Problem: Please report the recorded growth for CCCCCCCCCCCCCCCCCC1=NCCN1CS(=O)(=O)O .
Solution: 74.6

Problem: Would you mind doing Oc1ccc2ccccc2c1/C=N\Nc1ccccn1 as well?
Solution: -42.7

Problem: # iterate: OCC(O)C(O)CC1SCCS1 (stereo not drawn)
Solution: 104

Problem: Please do the same for Cc1nc(NC(=O)NC2CCCCC2)sc1C(=O)NN as well.
Solution: 103

Problem: Same question, C[C@@H](c1ccc2c(c1)[nH]c1ccc(Cl)cc12)c1nc2ccccc2[nH]1 this time
Solution: 93.5

---

- Tested on: RXF 393 renal
- PROTOCOL_SUMMARY: NCI-60 one-dose screen, 48 h
- TEST_SETTINGS: 10 µM unless noted
About 83,000 compounds went through this panel and 20% of them were active in at least one assay; those are over-represented in the sample as a whole. Calls of active or inactive are those of the source. The calls were made as follows: active = growth percent below 10; inactive = the rest.
A correct response names exactly one class from active, inactive

Worked examples, 4 compounds total:
COMPOUND | TESTED_ON | LABEL_CLASS
CCC(C)C1NC(=O)C(CCCCN)NC(=O)C(CCCCN)NC(=O)C(CC(C)C)NC(=O)C(CCCCN)NC(=O)C(C(C)CC)NC(=O)C(C(C)C)NC(=O)C(C(C)CC)NC(=O)C(CCCCN)NC(=O)C(CCCCN)NC(=O)C(C)NC(=O)C(CCCCN)NC(=O)C(CC(C)C)NC1=O (stereo not drawn) | RXF 393 renal | inactive
COc1cc(-c2cc3cnccc3c3nc(N)c4ccncc4c23)cc(OC)c1OC | RXF 393 renal | active
CC([C@H]1CCC2C3CCC4C[C@@H](N)CC[C@]4(C)C3CC[C@@]21C)N(C)C (stereo partly drawn) | RXF 393 renal | inactive
O=C(Nc1ccc(-n2cc(-c3ccncc3)c(-c3ccc(Cl)c(O)c3)n2)cc1)c1ccc(Cl)c(Cl)c1 | RXF 393 renal | active

Now examine the next entry.
Problem: Test call for this compound, please: N/C(=N\O)c1ccncc1
Solution: inactive
